The measured values listed here are drawn from DBAASP.

Observed MIC for Bacillus subtilis ATCC 6633, reported per entry below.

- Compound: "CC[C@H](C)[C@H](N)C(=O)N[C@@H](CC(C)C)C(=O)N[C@@H](CC(C)C)C(=O)N[C@@H](CCCCN)C(=O)N[C@H](C(=O)N[C@@H](Cc1c[nH]c2ccccc12)C(=O)N[C@@H](CCC(=O)O)C(=O)NCC(=O)N[C@H](C(=O)N[C@@H](CCCCN)C(=O)N[C@@H](CO)C(=O)N[C@@H](CC(C)C)C(=O)N[C@@H](Cc1ccccc1)C(N)=O)[C@@H](C)CC)[C@@H](C)CC [ILLKIWEGIKSLF]"
  Scale Unit: "µM"
  MIC: 0.78
- Compound: "CC(C)C[C@H](NC(=O)[C@H](CC(C)C)NC(=O)[C@H](CCCCN)NC(=O)[C@H](CCCCN)NC(=O)[C@H](CC(C)C)NC(=O)[C@H](Cc1c[nH]c2ccccc12)NC(=O)[C@H](CCCCN)NC(=O)[C@H](CC(C)C)NC(=O)[C@H](CC(C)C)NC(=O)[C@H](CCCCN)NC(=O)[C@@H](N)CCCCN)C(N)=O [KKLLKWLKKLL]"
  Scale Unit: "µM"
  MIC: 4.47

* * *

Observed MIC for Escherichia coli ESBL 63103, reported per entry below.

- Structure Notation: "N=C(N)NCCC[C@H](NC(=O)[C@H](CCCNC(=N)N)NC(=O)[C@@H](N)Cc1ccccc1)C(=O)N[C@@H](Cc1c[nH]c2ccccc12)C(=O)N[C@@H](Cc1c[nH]c2ccccc12)C(=O)N[C@@H](CCCCN)C(=O)N[C@@H](Cc1c[nH]c2ccccc12)C(=O)N[C@@H](Cc1ccccc1)C(=O)N[C@@H](CCCCN)C(=O)O"
  MIC: "5.77 µM"
- Structure Notation: "CC[C@H](C)[C@H](NC(=O)[C@@H](N)CCCN=C(N)N)C(=O)N[C@@H](Cc1c[nH]c2ccccc12)C(=O)N[C@@H](CCCCN)C(=O)N[C@@H](CCCN=C(N)N)C(=O)N[C@@H](Cc1c[nH]c2ccccc12)C(=O)N[C@@H](Cc1c[nH]c2ccccc12)C(=O)N[C@@H](Cc1ccccc1)C(=O)N[C@@H](CCCN=C(N)N)C(=O)O"
  MIC: "≥ 44.6 µM"
- Structure Notation: "NCCCC[C@H](NC(=O)[C@H](Cc1c[nH]c2ccccc12)NC(=O)[C@@H](N)CCCCN)C(=O)N[C@@H](CCCN=C(N)N)C(=O)N[C@@H](Cc1c[nH]c2ccccc12)C(=O)N[C@@H](Cc1c[nH]c2ccccc12)C(=O)N[C@@H](Cc1c[nH]c2ccccc12)C(=O)N[C@@H](Cc1ccccc1)C(=O)N[C@@H](CCCN=C(N)N)C(=O)O"
  MIC: "10.8 µM"
- Structure Notation: "CC[C@H](C)[C@H](NC(=O)[C@H](CCCN=C(N)N)NC(=O)[C@H](CCCCN)NC(=O)[C@@H](NC(=O)[C@H](Cc1c[nH]c2ccccc12)NC(=O)[C@H](Cc1c[nH]c2ccccc12)NC(=O)[C@H](Cc1c[nH]c2ccccc12)NC(=O)[C@H](CCCN=C(N)N)NC(=O)[C@@H](N)CC(C)C)[C@@H](C)CC)C(=O)O"
  MIC: "13.3 µM"
- Structure Notation: "NCCCC[C@H](NC(=O)[C@@H](N)CCCCN)C(=O)N[C@@H](CCCN=C(N)N)C(=O)N[C@@H](Cc1c[nH]c2ccccc12)C(=O)N[C@@H](Cc1c[nH]c2ccccc12)C(=O)N[C@@H](Cc1c[nH]c2ccccc12)C(=O)N[C@@H](Cc1c[nH]c2ccccc12)C(=O)N[C@@H](Cc1c[nH]c2ccccc12)C(=O)N[C@@H](CCCN=C(N)N)C(=O)O"
  MIC: "5.27 µM"
